experimental_details: Toxicity in brine shrimp
settings: artemia salina; read-out: ED50 (the source's name)

compound: O=CNC(CCCC#C/C=C\Cl)CCC/C=C\C=C(Cl)Cl (stereo not drawn)
LC50: 1 µg/mL
//
compound: O=CNC(CCCC#CC=C(Cl)Cl)CCCCCCC(Cl)Cl (stereo not drawn)
LC50: 1 µg/mL
//
compound: O=CNC(CCCC#CC=C(Cl)Cl)CCC/C=C/CC(Cl)Cl (stereo not drawn)
LC50: 1 µg/mL

###

experimental_details: Toxicity in brine shrimp assessed as lethality at 10 ppm relative to control
settings: artemia salina, read-out: Activity

molecule: C=CCCC/C(=C/Cl)CCC(C)/C=C/CCC(=O)NCC/C(=C\C(=O)N1C(=O)C=C[C@@H]1C)OC (stereo partly specified)
unit_of_measure: %
mortality at 10 ppm: 25

###

The reader will find reported LC50 values listed item by item below.
experimental_details: Toxicity in goldfish assessed as lethal dose
settings: carassius auratus

molecule: C=C[C@@H]1CSC(C[C@@H](C)[C@@H](C)C[C@H](C)CCN(C)C(=O)[C@H](C)CC)=N1
LC50 [nM]: 700
//
molecule: C=C1CC(=O)N[C@@H](C)C(=O)N(C)[C@@H](C(C)C)C(=O)NCC(=O)O[C@@H](/C(C)=C/C(C)=C/C(C)(C)C)[C@@H]1C [ANTILLATOXIN]
LC50 [nM]: 100

###

tested_on: Tubulin
experimental_details: Inhibition of tubulin polymerization (unknown origin) by tubulin polymerization assay
pIC50: −log10 of the molar value.
property: pIC50

compound: C=CCC(CC/C(C)=C/C=C/CC/C=C\C1CSC([C@@H]2C[C@@H]2C)=N1)OC (stereo partly specified)
observed_measurement: 6.16

###

System: HeLa
experimental_details: Cytotoxicity against human HeLa cells assessed as inhibition of cell growth incubated for 72 hrs by MTT assay
Format: functional, cell-based
pIC50: −log10 of the molar value.
property: pIC50

smiles_record: CC/C(=C\C(=O)N(C)/C=C\CCC[C@H]1CC[C@H](C)C[C@@H](C)C(=O)N(C)[C@@H](CC(C)C)C(=O)O1)OC
property: pIC50
observed_measurement: 5.60

###

The reader will find reported pIC50 values listed item by item below.
Tested on: HeLa
experimental_details: Cytotoxicity against human HeLa cells assessed as inhibition of cell growth incubated for 48 hrs by WST-8 colorimetric assay
Format: functional, cell-based
pIC50: −log10 of the molar value.

smiles_record: CC[C@@H](C)[C@H]1C(=O)N2CCC[C@H]2C(=O)O[C@H](C(C)(C)C)C[C@@H](C)C[C@H](O)[C@H](C)C2=N[C@@H](/C=C(\C)C(=O)N[C@@H](Cc3ccc(OCCCCCCCn4cc(-c5ccccc5)nn4)cc3)C(=O)N(C)[C@@H](C)C(=O)N1C)CS2
pIC50: 7.30
//
smiles_record: CC[C@@H](C)[C@H]1C(=O)N2CCC[C@H]2C(=O)O[C@H](C(C)(C)C)C[C@@H](C)C[C@H](O)[C@@H](C)C2=N[C@@H](/C=C(\C)C(=O)N[C@@H](Cc3ccc(OC)cc3)C(=O)N(C)[C@@H](C)C(=O)N1C)CS2
pIC50: 6.72
//
smiles_record: CC[C@@H](C)[C@H]1C(=O)N2CCC[C@H]2C(=O)O[C@H](C(C)(C)C)C[C@@H](C)C[C@H](O)[C@H](C)C2=N[C@@H](/C=C(\C)C(=O)N[C@@H](Cc3ccc(OCCCCCCCN=[N+]=[N-])cc3)C(=O)N(C)[C@@H](C)C(=O)N1C)CS2
pIC50: 7.10
//
smiles_record: CC[C@@H](C)[C@H]1C(=O)N2CCC[C@H]2C(=O)O[C@H](C(C)(C)C)C[C@@H](C)C[C@H](O)[C@H](C)C2=N[C@@H](/C=C(\C)C(=O)N[C@@H](Cc3ccc(OC)cc3)C(=O)N(C)[C@@H](C)C(=O)N1C)CS2
pIC50: 6.72

###

System: NCI-H460
experimental_details: Cytotoxicity against human NCI-H460 cells
Format: functional, cell-based
Could you mark each record T if its IC50 falls strictly under 4 µM, and F if it equals or exceeds it?

compound: CC[C@H](C)[C@H]1C(=O)N(C)[C@@H](C)C(=O)O[C@H](C(C)(C)C)C[C@@H](C)C[C@H](O)[C@H](C)C2=NC(/C=C(\C)C(=O)N[C@@H](Cc3ccc(OC)cc3)C(=O)N(C)[C@@H](C)C(=O)N1C)CS2 (stereo not given in full)
label_value: T
--
compound: CO/C(=C/C(=O)N1C(=O)C=C[C@@H]1C)CCNC(=O)CC/C=C/C(C)CC/C(=C\Cl)CCCC#CBr (stereo not given in full)
label_value: F
--
compound: CCCCCCCC[C@@H](C/C=C/CCC(=O)NC/C(=C/Cl)C1=CCCCC1=O)OC
label_value: T
--
compound: C#CCCC/C(=C/Cl)CCC(C)/C=C/CCC(=O)NCC/C(=C\C(=O)N1C(=O)C=C[C@@H]1C)OC (stereo not given in full)
label_value: F
--
compound: C=CCCC/C(=C/Cl)CCC(C)/C=C/CCC(=O)NCC/C(=C\C(=O)N1C(=O)C=C[C@@H]1C)OC (stereo not given in full)
label_value: F
--
compound: COc1ccc(C[C@@H]2NC(=O)/C(C)=C/C3CSC(=N3)[C@@H](C)[C@@H](O)C[C@H](C)C[C@@H](C(C)(C)C)OC(=O)[C@H](C)N(C)C(=O)[C@H](C(C)C)N(C)C(=O)[C@H](C)N(C)C2=O)cc1 (stereo not given in full)
label_value: T

###

experimental_details: Antiproliferative activity against CHO-AUXB1 cells
Format: toxicity, cell-based
settings: Chinese hamster (Cricetulus griseus)
property: IC50

compound: C=CCC(CC/C(C)=C/C=C/CC/C=C\C1CSC([C@@H]2C[C@@H]2C)=N1)OC (stereo partly specified)
property: IC50
observed_measurement: 6.8 ng/mL

###

experimental_details: Toxicity in brine shrimp assessed as lethal dose
settings: artemia salina; read-out: LC50
property: LC50 (ng/mL)

compound: C=CCC(CC/C(C)=C/C=C/CC/C=C\C1CSC([C@@H]2C[C@@H]2C)=N1)OC (some centres not stated)
observed_measurement: 3
